Readings of logD for the listed molecules
- test_summary: method code SF-AS, from Bernabe, T.; Forni, F.; Bellei, S.; Cameroni, R. (1980). Partition coefficients of a series of substituted benzoic acids. Atti Soc. Nat. Mat Modena, 111(1)63-72.
- condition_set: pH 1.0
Reply with just the number.

Example molecules with recorded logD:
item_smiles: O=C(O)c1cc(Cl)ccc1[N+](=O)[O-]
logD: 2.13
//
item_smiles: O=C(O)c1ccc(O)c([N+](=O)[O-])c1
logD: 1.85
//
item_smiles: COc1cc(OC)cc(C(=O)O)c1
logD: 2.19
//
item_smiles: Nc1cc([N+](=O)[O-])ccc1C(=O)O
logD: 1.91
//
item_smiles: O=C(O)c1cc([N+](=O)[O-])c(Cl)c([N+](=O)[O-])c1
logD: 2.5

## Input Record request: logD value, item O=C(O)c1cc([N+](=O)[O-])cc([N+](=O)[O-])c1O
## Output 1.71

## Input Any idea what its logD is? The molecule is Nc1c(Cl)cc(Cl)cc1C(=O)O
## Output 1.82

###

- test_summary: method code SF-AS, from Bernabe, T.; Forni, F.; Bellei, S.; Cameroni, R. (1980). Partition coefficients of a series of substituted benzoic acids. Atti Soc. Nat. Mat Modena, 111(1)63-72.
- condition_set: pH 1.0
Each entry below carries its recorded logD.
Just the number, please, no unit after it.

Answered cases to consult:
item_smiles: O=C(O)c1ccc([N+](=O)[O-])c(O)c1
val: 1.98

item_smiles: COc1cccc(C(=O)O)c1O
val: 1.94

item_smiles: O=C(O)c1ccc(Cl)cc1[N+](=O)[O-]
val: 2.08

item_smiles: O=C(O)c1cc(I)ccc1O
val: 2.63

item_smiles: COc1ccc(C(=O)O)cc1OC
val: 1.61

## Input What does the data say about its logD? Entry: Cc1cccc(C(=O)O)c1O
## Output 2.86

## Input Need logD, item O=C(O)c1ccc(O)c(Cl)c1
## Output 2.41

Hello, the source for this data is the SangsterLogP compilation, in case you need it.
